- assay comment: SUPPLEMENTARY: Lyophilisation Solubility Assay (LYSA)
- Type: physicochemical
- reported conditions: read-out: Kinetic_solubility
measure: solubility kinetic (µg/mL)

Example molecules with recorded solubility kinetic:
> print(dat)
                                  structure             measure  measured.number
1  O=C(O)Cc1csc(NC(=O)c2ccc3c(c2)N(S(=O)(=O)c2cccc(Cl)c2)CCO3)n1  solubility kinetic               54
2  NC(=O)COc1cccc(-c2noc([C@H]3CCCCN3C(=O)COc3ccccc3)n2)c1  solubility kinetic               57

a = COc1ccc(Cl)cc1Cn1ccc2ccc(C(=O)Nc3nc(CC(=O)O)cs3)cc21
b = COc1ccc2[nH]cc(C(=O)COc3ccncc3)c2c1
c = O=C(COc1ccccc1)N1CCCC[C@@H]1c1nc(-c2ccccn2)cs1
Sort ascending by solubility kinetic. // ordering of labels required in reply a, c, b

P = CC(=O)Nc1ccc(-c2nc([C@H]3CCCCN3C(=O)COc3ccccc3)cs2)cc1
Q = NC(=O)c1cncc(-c2noc([C@H]3COCCN3C(=O)COc3ccccc3)n2)c1
// pick min by solubility kinetic: P , Q Kindly give the label for the entry you pick. P
